Literature survey of IC50 (system: Tyrosine-protein kinase receptor UFO (Homo sapiens)).

[
  {
    "compound": "CC(C)C(=O)N1CCC(c2cc(-c3ccc(NC(=O)c4c5n(n(-c6ccccc6)c4=O)CCOC5)cc3F)c3c(N)ncnn23)CC1",
    "quantity-measured": "IC50",
    "observed-result": "5 to 50 nM"
  },
  {
    "compound": "CC[C@H](C)Nc1ncc2c(OC3C[C@H]4CC[C@@H](C3)O4)ncc([C@H]3CC[C@H](O)CC3)c2n1 (stereo partly shown)",
    "quantity-measured": "IC50",
    "observed-result": "100 to 1000 nM"
  },
  {
    "compound": "COCCOc1nc(Nc2ccc(CN3CCN(C)CC3)cc2)nc2[nH]cc(-c3ccc(S(=O)(=O)N(C)C)cc3F)c12",
    "quantity-measured": "IC50",
    "observed-result": "< 30 nM"
  }
]

input: Recorded IC50 for Nc1ncc(-c2cnn(C3CCNCC3)c2)cc1-c1ncc(-c2ccccc2)o1 , please?
output: < 500 nM

input: Check COC[C@H](C)Nc1ncc2c(-c3cnn(C4CN(CCC(F)(F)F)C4)c3)cc([C@H]3CC[C@H](O)CC3)n2n1 too.
output: ≤ 100 nM

input: Check COC[C@H](C)Nc1ncc2c(-c3cnn(C4COC4)c3)cc([C@@H]3CC[C@H](O)C(C)(C)C3)n2n1 too.
output: 100 to 1000 nM

input: Check COC[C@H](C)Nc1ncc2c(C#CC(C)(C)C(=O)N3CCOCC3)cc([C@H]3CC[C@H](O)CC3)n2n1 too.
output: 100 to 1000 nM
